// data source = patent US20250346613A1

The compounds listed here are annotated with their IC50.
Biological target: β5c subunit of the 20S proteasome (Homo sapiens, UniProt P20618+P28074)
Construct: The proteasome tested in the present disclosure was derived from Raji cells; endogenous in cells; host or cells: Raji cells
Assay: Proteasome inhibitory activity, β5c subunit (Raji cells treated with compound, lysed, Suc-LLVY-AMC substrate)
Format: cell-based
Details: proteasome from Raji cells incubated with compound 4 h

COc1cccc(CNC(=O)C(CC2CC2)C(=O)N[C@@H](Cc2ccc(C)cc2)B(O)O)c1 (some centres unmarked) : ≤ 50 nM
Cc1ccc(CNC(=O)/C=C/C(=O)N[C@@H](Cc2ccc(C)cc2)B(O)O)cc1 : 50 to 200 nM
Cc1ccc(C[C@H](NC(=O)C(C)(F)C(=O)NCc2cccc(-c3ccccc3)n2)B(O)O)cc1 (some centres unmarked) : ≤ 50 nM
COc1cccc(CNC(=O)CC(=O)N[C@@H](Cc2coc3ccccc23)B(O)O)c1 : ≤ 50 nM
O=C(CC(=O)N[C@@H](Cc1ccccc1)B(O)O)NCc1cccc(-c2ccccc2)c1 : ≤ 50 nM

Given CC(C(=O)Nc1ccccc1)C(=O)N[C@@H](Cc1ccccc1)B(O)O (some centres unmarked) , state its recorded IC50.
50 to 200 nM

Try the compound COc1cccc(CNC(=O)C(C(=O)N[C@@H](Cc2coc3ccccc23)B(O)O)C(C)C)c1 (some centres unmarked)
≤ 50 nM

Try the compound COc1cccc(CNC(=O)C(CC2CCCCC2)C(=O)N[C@@H](Cc2coc3ccccc23)B(O)O)c1 (some centres unmarked)
≤ 50 nM
